Readings of IC50 for the listed compounds
Biological target: human P2X7 receptor (Homo sapiens (Human), UniProt Q99572, R270H)
Sequence (Q99572 whole entry R270H): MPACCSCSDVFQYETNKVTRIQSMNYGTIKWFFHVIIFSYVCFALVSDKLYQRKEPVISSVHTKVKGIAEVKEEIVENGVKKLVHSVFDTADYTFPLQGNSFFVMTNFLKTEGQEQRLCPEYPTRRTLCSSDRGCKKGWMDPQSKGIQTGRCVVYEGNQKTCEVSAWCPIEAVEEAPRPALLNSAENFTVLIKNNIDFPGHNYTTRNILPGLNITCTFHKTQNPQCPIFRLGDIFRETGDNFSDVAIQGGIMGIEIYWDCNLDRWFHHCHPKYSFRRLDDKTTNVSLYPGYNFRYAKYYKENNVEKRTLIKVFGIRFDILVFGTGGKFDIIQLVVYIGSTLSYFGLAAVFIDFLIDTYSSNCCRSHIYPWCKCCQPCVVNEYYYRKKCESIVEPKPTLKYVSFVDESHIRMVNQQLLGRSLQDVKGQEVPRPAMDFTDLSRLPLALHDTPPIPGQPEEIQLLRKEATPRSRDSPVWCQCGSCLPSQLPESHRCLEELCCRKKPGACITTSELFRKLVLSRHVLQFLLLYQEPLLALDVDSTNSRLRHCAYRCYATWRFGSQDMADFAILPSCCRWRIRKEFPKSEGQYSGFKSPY
Assay: Evaluation of a human P2X7 receptor inhibitory activity (Yo-Pro uptake, BzATP stimulation, FLIPR TETRA)
Type: cell-based
Conditions: 1321N1 cells stably expressing human P2X7 receptor, Yo-Pro fluorescence, class symbols
Method: Evaluation of a human P2X7 receptor inhibitory activity Stably expressing cell line (1321N1 cell transfected with the human P2X7 receptor gene (GenBank accession number NM_002562.5 including T606C and G952A SNP)) was used. […] Measurement of fluorescence intensity by FLIPR TETRA was started. […] Changing values of fluorescence intensity by the compound of the present invention were calculated by difference between maximum and minimum fluorescence intensity for 20 minutes. […]

Compound	Target of assay	IC50
COc1nc(C)c(Nc2nc(=O)c(F)c3n2C(c2cc(F)cc(F)c2)CC3)cc1C (centres unmarked) [Compound I-0136]	human P2X7 receptor (Homo sapiens (Human), UniProt Q99572, R270H)	10 to 100 nM
CCOc1ccc(Nc2nc(=O)cc3n2C(c2cc(F)cc(F)c2)CC3)c(C)n1 (centres unmarked) [Compound I-0055]	human P2X7 receptor (Homo sapiens (Human), UniProt Q99572, R270H)	10 to 100 nM
Cc1cc(C#N)ccc1NC1=NC(=O)N(C)C2=NCC(c3cc(F)c(F)c(F)c3)N12 (centres unmarked) [Compound I-0208]	human P2X7 receptor (Homo sapiens (Human), UniProt Q99572, R270H)	10 to 100 nM
COc1ccc(Nc2nc(=O)cc3n2C(c2cccc(F)c2)CC3)c(C)c1 (centres unmarked) [Compound I-0049]	human P2X7 receptor (Homo sapiens (Human), UniProt Q99572, R270H)	< 10 nM
COc1nc(C)c(Nc2nc(=O)c(F)c3n2C(c2cc(F)cc(F)c2)CC3)cc1F (centres unmarked) [Compound I-0141]	human P2X7 receptor (Homo sapiens (Human), UniProt Q99572, R270H)	10 to 100 nM
COc1cnc(C)c(Nc2nc(=O)c(F)c3n2C(c2cc(F)cc(F)c2)CC3)c1 (centres unmarked) [Compound I-0123]	human P2X7 receptor (Homo sapiens (Human), UniProt Q99572, R270H)	10 to 100 nM
Cc1ccc(NC2=NC(=O)N(C)C3=NCC(c4ccc(F)cc4)N23)c(C)n1 (centres unmarked) [Compound I-0120]	human P2X7 receptor (Homo sapiens (Human), UniProt Q99572, R270H)	100 to 500 nM
CCN1C(=O)N=C(Nc2cc(OC)ccc2C)N2C1=NCC2c1ccc(F)cc1 (centres unmarked) [Compound I-0139]	human P2X7 receptor (Homo sapiens (Human), UniProt Q99572, R270H)	10 to 100 nM
COc1cc(Nc2nc(=O)cc3n2C(c2cc(F)cc(F)c2)CN3)c(C)cc1F (centres unmarked) [Compound I-0128]	human P2X7 receptor (Homo sapiens (Human), UniProt Q99572, R270H)	10 to 100 nM
COc1ccc(Nc2nc(=O)c(OC)c3n2C(c2ccccc2)CC3)c(C)c1 (centres unmarked) [Compound I-0052]	human P2X7 receptor (Homo sapiens (Human), UniProt Q99572, R270H)	10 to 100 nM
COc1cnc(C)c(Nc2nc(=O)cc3n2C(c2cc(F)cc(F)c2)CC3)c1 (centres unmarked) [Compound I-0071]	human P2X7 receptor (Homo sapiens (Human), UniProt Q99572, R270H)	10 to 100 nM
COc1ccc(C)c(/N=c2\[nH]c(=O)cc3n2C(c2cc(F)cc(F)c2)CC3)c1 (centres unmarked) [Compound I-0061]	human P2X7 receptor (Homo sapiens (Human), UniProt Q99572, R270H)	10 to 100 nM
COc1cc(C)c(Nc2nc(=O)cc3n2C(c2cc(F)c(F)c(F)c2)CC3)cc1OC (centres unmarked) [Compound I-0021]	human P2X7 receptor (Homo sapiens (Human), UniProt Q99572, R270H)	10 to 100 nM
COc1ccc(NC2=NC(=O)N(C)C3=NCC(c4cc(F)cc(F)c4)N23)c(C)c1F (centres unmarked) [Compound I-0137]	human P2X7 receptor (Homo sapiens (Human), UniProt Q99572, R270H)	10 to 100 nM
Cc1nc2cc(C)c(Nc3nc(=O)c(F)c4n3C(c3cc(F)cc(F)c3)CC4)cc2s1 (centres unmarked) [Compound I-0101]	human P2X7 receptor (Homo sapiens (Human), UniProt Q99572, R270H)	10 to 100 nM
COc1ccc(C)c(Nc2nc(=O)c(F)c3n2C(c2cc(F)cc(F)c2)CC3)c1 (centres unmarked) [Compound I-0098]	human P2X7 receptor (Homo sapiens (Human), UniProt Q99572, R270H)	< 10 nM
Cc1ccc(O[C@H]2C[C@@H](CO)C2)cc1NC1=NC(=O)N(C)C2=NCC(c3cc(F)c(F)c(F)c3)N12 (some centres unmarked) [Compound I-0185]	human P2X7 receptor (Homo sapiens (Human), UniProt Q99572, R270H)	10 to 100 nM
COc1cc(/N=c2\[nH]c(=O)c(F)c3n2C(c2ccc(F)cc2F)CC3)c(C)cc1F (centres unmarked) [Compound I-0062]	human P2X7 receptor (Homo sapiens (Human), UniProt Q99572, R270H)	10 to 100 nM
CCOc1nc(C)c(Nc2nc(=O)cc3n2C(c2ccc(F)cc2F)CC3)cc1F (centres unmarked) [Compound I-0082]	human P2X7 receptor (Homo sapiens (Human), UniProt Q99572, R270H)	10 to 100 nM
Cc1ccc(C)c(NC2=NC(=O)N(C)C3=NCC(Cc4ccccc4)N23)c1 (centres unmarked) [Compound I-0177]	human P2X7 receptor (Homo sapiens (Human), UniProt Q99572, R270H)	100 to 500 nM
COc1ccc(Nc2nc(=O)cc3n2C(c2ccc(F)c(F)c2)CC3)c(C)c1 (centres unmarked) [Compound I-0041]	human P2X7 receptor (Homo sapiens (Human), UniProt Q99572, R270H)	< 10 nM
Cc1cc2c(cc1Nc1nc(=O)cc3n1C(c1ccc(F)cc1)CC3)COC2 (centres unmarked) [Compound I-0067]	human P2X7 receptor (Homo sapiens (Human), UniProt Q99572, R270H)	< 10 nM
CCOc1ccc(Nc2nc(=O)c(F)c3n2C(c2cc(F)cc(F)c2)CC3)c(CC)n1 (centres unmarked) [Compound I-0096]	human P2X7 receptor (Homo sapiens (Human), UniProt Q99572, R270H)	10 to 100 nM
COc1ccc(Nc2nc(=O)c(F)c3n2C(c2ccccc2)CC3)c(C)c1 (centres unmarked) [Compound I-0046]	human P2X7 receptor (Homo sapiens (Human), UniProt Q99572, R270H)	10 to 100 nM
COc1cc(C)c(Nc2nc(=O)n(C)c3ncn(Cc4ccccc4)c23)cc1OC [Compound I-0170]	human P2X7 receptor (Homo sapiens (Human), UniProt Q99572, R270H)	10 to 100 nM
Cc1ncc(CO)cc1NC1=NC(=O)N(C)C2=NCC(c3cc(F)c(F)c(F)c3)N12 (centres unmarked) [Compound I-0175]	human P2X7 receptor (Homo sapiens (Human), UniProt Q99572, R270H)	10 to 100 nM
COc1cc(C)c(Nc2nc(=O)cc3n2C(c2ccccc2)CC3)cc1C (centres unmarked) [Compound I-0020]	human P2X7 receptor (Homo sapiens (Human), UniProt Q99572, R270H)	< 10 nM
COCCc1ccc(C)c(NC2=NC(=O)N(C)C3=NCC(c4cc(F)c(F)c(F)c4)N23)c1 (centres unmarked) [Compound I-0202]	human P2X7 receptor (Homo sapiens (Human), UniProt Q99572, R270H)	10 to 100 nM
Cc1cc(F)c(C2=NCCO2)cc1NC1=NC(=O)N(C)C2=NCC(c3cc(F)c(F)c(F)c3)N12 (centres unmarked) [Compound I-0214]	human P2X7 receptor (Homo sapiens (Human), UniProt Q99572, R270H)	10 to 100 nM
COc1ccc(Nc2nc(=O)c(C)c3n2C(c2cc(F)cc(F)c2)CC3)c(C)n1 (centres unmarked) [Compound I-0087]	human P2X7 receptor (Homo sapiens (Human), UniProt Q99572, R270H)	10 to 100 nM
CCOc1ccc(/N=c2\[nH]c(=O)cc3n2C(c2ccc(F)cc2F)CC3)c(CC)n1 (centres unmarked) [Compound I-0075]	human P2X7 receptor (Homo sapiens (Human), UniProt Q99572, R270H)	10 to 100 nM
Cc1nc2cc(C)c(/N=c3\[nH]c(=O)c(F)c4n3C(c3ccc(F)cc3)CC4)cc2s1 (centres unmarked) [Compound I-0054]	human P2X7 receptor (Homo sapiens (Human), UniProt Q99572, R270H)	< 10 nM

---

biological target: human P2X7 receptor (Homo sapiens (Human), UniProt Q99572, R270H); test: Evaluation of a human P2X7 receptor inhibitory activity (Yo-Pro uptake, BzATP stimulation, FLIPR TETRA); assay type: cell-based; conditions: 1321N1 cells stably expressing human P2X7 receptor, Yo-Pro fluorescence
Readings of IC50 for the listed molecules
Value kind: IC50 (µM)

Molecule	Target of assay	Reported value
Cc1ccccc1Nc1nc(=O)cc2n1C(c1ccccc1)CCC2 (stereo not shown)	human P2X7 receptor (Homo sapiens (Human), UniProt Q99572, R270H)	0.037
COc1cc(NC2=NC(=O)N(C)C3=NCC(c4cc(F)c(F)c(F)c4)N23)c(C)cc1F (stereo not shown)	human P2X7 receptor (Homo sapiens (Human), UniProt Q99572, R270H)	0.021
CCc1nc(OC)ccc1NC1=NC(=O)N(C)C2=NCC(c3cc(F)c(F)c(F)c3)N12 (stereo not shown)	human P2X7 receptor (Homo sapiens (Human), UniProt Q99572, R270H)	0.017
COc1ccc(NC2=NC(=O)N(C)C3=NCC(c4ccc(F)cc4)N23)c(C)c1F (stereo not shown)	human P2X7 receptor (Homo sapiens (Human), UniProt Q99572, R270H)	0.014

Sourced from patent US11066409B2
